# system: T1, human CD70 expressed on Molm-13 tumor cells (human, UniProt P32970 1-193)
# T1 construct: whole, on cells; also called CD70 expressed on the surface of cells; CD70-expressing tumor cells (Molm-13 N1)
# T1 sequence (looked up): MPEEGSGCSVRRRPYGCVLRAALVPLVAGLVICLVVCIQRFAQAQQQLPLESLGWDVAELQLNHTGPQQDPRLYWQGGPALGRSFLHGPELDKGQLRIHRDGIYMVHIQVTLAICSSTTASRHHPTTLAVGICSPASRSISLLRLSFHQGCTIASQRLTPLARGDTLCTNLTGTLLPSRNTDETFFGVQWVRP
# test: flow cytometry (MFI) on CD70-expressing Molm-13 N1 tumor cells
pEC50: −log10 of the molar value.
Known pEC50 of a selection of binders
observed property: pEC50

1) DARPin® protein #2 (designed binder, Parent of DARPin protein #24) MRGSHHHHHHGSDLGYKLLQAAYDGQLDEVRILLKAGADVNAKDSRGQTPLHYAASIGHLEIVEVLLKAGADVNAKDDHGWTPLHLAAWSGHLEIVEVLLKAGADVNAQDQEGTTPADLAAVQGHQDIAEVLQKAA: 8.31
2) DARPin® protein #25 (designed binder, expressed as monovalent designed ankyrin repeat protein with N-terminal His-tag) MRGSHHHHHHGSDLGKKLLQAARAGQLDEVRELLKAGADVNAKDQQGLTPLHIAANLGHLEIVEVLLKAGADVNAKDLFGLTPLHLAAFEGHLEIVEVLLKAGADVNAKDQHGATPLHLAAWVGHLEIVEVLLKAGADVNAQDKSGKTPADLAARAGHQDIAEVLQKAA: 7.57
3) DARPin® protein #24 (designed binder, expressed as monovalent designed ankyrin repeat protein with N-terminal His-tag) MRGSHHHHHHGSDLGIKLLTAAYDGQLDEVRILLKAGADVNAKDLRGQTPLHYAAGLGHLEIVEVLLKAGADVNAKDLHGWTPLHLAAWSGHLEIVEVLLKAGADVNAQDVEGVTPADLAAVQGHQDIAEVLQKAA: 8.28
4) DARPin® protein #9 (designed binder, Parent of DARPin protein #25) MRGSHHHHHHGSDLGKKLLQAARAGQLDEVRELLKAGADVNAKDQAGLTPLHIAAATGHLEIVEVLLKAGADVNAKDFSGLTPLHLAAFEGHLEIVEVLLKAGADVNAKDQHGQTPLHLAAWTGHLEIVEVLLKAGADVNAQDKSGKTPADLAARAGHQDIAEVLQKAA: 6.32
